System: HCC1937
Experiment: normalised viability (% of control), CellTiter-Blue; higher = more viable cells (about 100 = DMSO control)
Conditions: 100 nM; incubation time: 72 h
normalised viability listing for selected molecules.
Reply numerically in %, unit not repeated.

CN(C)/N=N/c1[nH]cnc1C(N)=O [Dacarbazine] ... 106

input: Find the recorded normalised viability belonging to CC(C)Cn1cnc2c(N)nc3ccccc3c21 [Imiquimod] and report it.
output: 87.1

input: # input molecule: Oc1nc(-c2ccc(C(F)(F)F)cc2)nc2c1CSCC2 [XAV-939] ; wanted: its normalised viability
output: 101

input: Given the entry CC1(C)NC(=O)N(c2ccc([N+](=O)[O-])c(C(F)(F)F)c2)C1=O [Nilutamide] , report its measured normalised viability.
output: 99.7

input: Requested read-out: normalised viability. Entry: N.N.[Cl][Pt][Cl] [Cisplatin]
output: 95.1

input: Value lookup for normalised viability; key = C[C@@H](Oc1cc(-c2cnn(C3CCNCC3)c2)cnc1N)c1c(Cl)ccc(F)c1Cl [Crizotinib]
output: 102

input: Name the reported normalised viability value associated with the molecule Cn1c(CCCC(=O)O)nc2cc(N(CCCl)CCCl)ccc21 [Bendamustine]
output: 97.4

input: If you can, please state the reported normalised viability value of C#Cc1cccc(Nc2ncnc3cc(OCCOC)c(OCCOC)cc23)c1 [Erlotinib] .
output: 106

* * *

Test system: MDA-MB-436
Assay: drug sensitivity score (DSS), CellTiter-Blue viability (DSS (AUC-based score)); higher = stronger viability inhibition; extreme values may be limits of the assay
Details: incubation time: 72 h
REPORTED ENDPOINT: drug sensitivity score
Keep it simple and answer with nothing but the number.

CC(=O)Nc1ccc(C(=O)Nc2ccccc2N)cc1 ... 0

input: Which drug sensitivity score is listed for "Cc1ccc(C(=O)N(CCCN)[C@@H](c2oc3cc(Cl)ccc3c(=O)c2Cc2ccccc2)C(C)C)cc1" ?
output: 13.4

input: Need drug sensitivity score, item "C=C(c1ccc(C(=O)O)cc1)c1cc2c(cc1C)C(C)(C)CCC2(C)C"
output: 0

* * *

Tested on: BT-549
Assay: normalised viability (% of control), CellTiter-Blue; higher = more viable cells (about 100 = DMSO control)
Details: 10000 nM; incubation time: 72 h
REPORTED ENDPOINT: normalised viability (%)
Report as a plain number; the unit % is understood.

Solved cases below.
N.N.[Cl][Pt][Cl] [Cisplatin] ... 88.8
C=C(c1ccc(C(=O)O)cc1)c1cc2c(cc1C)C(C)(C)CCC2(C)C ... 74.5
C[C@]12CC[C@@H]3c4ccc(O)cc4C[C@@H](CCCCCCCCC[S+]([O-])CCCC(F)(F)C(F)(F)F)[C@H]3[C@@H]1CC[C@@H]2O (stereo partly specified) ... 74.8
C#Cc1cccc(Nc2ncnc3cc(OCCOC)c(OCCOC)cc23)c1 ... 66.9
CCC1=C[C@@H]2CN(C1)Cc1c([nH]c3ccccc13)[C@@](C(=O)OC)(c1cc3c(cc1OC)N(C)[C@H]1[C@@](O)(C(=O)OC)[C@H](OC(C)=O)[C@]4(CC)C=CCN5CC[C@]31[C@@H]54)C2 ... 11.4

input: Given the entry "Oc1nc(-c2ccc(C(F)(F)F)cc2)nc2c1CSCC2" , what normalised viability was observed with BT-549?
output: 101

Attribution: the supplement of paper PMC4862054
